- Tested on: Aphis gossypii
- measurementNotes: Pesticidal activity against Aphis gossypii (cotton aphid) third-instar nymphae grown on tender Hibiscus syriacus leaves assessed as pest mortality at 600 mg/L measured 24 hr post compound exposure
- Type: functional
- statedConditions: in Hibiscus syriacus
Each entry below carries its recorded mortality at 600 µg/mL.
reportedEndpoint: mortality at 600 µg/mL (%)

> print(dat)
                                      smiles  quantitativereadout
 1  Cc1cc(Cl)cc(C(=O)NNCc2ccc(Cl)nc2)c1NC(=O)C(C)(C)C                 24.2
 2  Cc1cc(Cl)cc(C(=O)NNCc2cccc(C(F)(F)F)c2)c1NC(=O)CC(C)(C)C                 58.3
 3  Cc1cc(Cl)cc(C(=O)NNCc2ccccc2)c1NC(=O)C(C)(C)C                 52.4
 4  Cc1cc(Br)cc(C(=O)NNCc2ccc(Cl)cc2Cl)c1NC(=O)C(C)(C)CCl                  3.8
 5  Cc1cc(Br)cc(C(=O)NNCc2ccccc2)c1NC(=O)C(C)(C)C                 86.1
 6  Cc1cc(Br)cc(C(=O)NNCc2cccc(C(F)(F)F)c2)c1NC(=O)C(C)(C)C                 54.2
 7  Cc1cc(Cl)cc(C(=O)NNCc2ccc(Cl)cc2Cl)c1NC(=O)CC(C)(C)C                   62
 8  CC(C)(C)C(=O)Nc1ccc(Cl)cc1C(=O)NNCc1ccc(F)cc1                 91.3
 9  Cc1cc(Cl)cc(C(=O)NNCc2ccccc2Cl)c1NC(=O)C(C)(C)CCl                 14.5
10  Cc1cc(Cl)cc(C(=O)NNCc2ccccc2)c1NC(=O)C(C)(C)CCl                 68.5
11  Cc1cc(Br)cc(C(=O)NNCc2ccc(Cl)nc2)c1NC(=O)C(C)(C)CCl                 33.3
12  Cc1cc(Cl)cc(C(=O)NNCc2ccccc2F)c1NC(=O)C(C)(C)CCl                 70.2
13  CC(C)(C)CC(=O)Nc1ccc(Cl)cc1C(=O)NNCc1ccccc1F                  1.8
14  Cc1cc(Cl)cc(C(=O)NNCc2ccccc2Cl)c1NC(=O)C(C)(C)C                 51.7
15  Cc1cc(Cl)cc(C(=O)NNCc2ccc(Cl)cc2Cl)c1NC(=O)C(C)(C)C                 77.8
16  Cc1cccc(C(=O)NNCc2ccc(Cl)cc2Cl)c1NC(=O)C(C)(C)C                 89.4
17  Cc1cc(Br)cc(C(=O)NNCc2ccccc2Cl)c1NC(=O)CC(C)(C)C                   88
18  CC(C)(C)C(=O)Nc1ccc(Cl)cc1C(=O)NNCc1cccc(C(F)(F)F)c1                 28.9
19  Cc1cc(Cl)cc(C(=O)NNCc2ccc(F)cc2)c1NC(=O)C(C)(C)C                 41.5
20  Cc1cc(Cl)cc(C(=O)NNCc2ccc(F)cc2)c1NC(=O)C(C)(C)CCl                 81.5
21  Cc1cccc(C(=O)NNCc2ccccc2)c1NC(=O)C(C)(C)C                 62.3
